Quick record: pIC50, Cathepsin Z (Homo sapiens, UniProt Q9UBR2).
# reply with the number alone; pIC50 is -log10 of concentration in mol/L

In: Quickly give me recorded pIC50 for `Cn1ccnc1SCC(=O)c1ccc2c(c1)OCCO2`
Out: 5.02

====

Quick record: pIC50, Cathepsin Z (Homo sapiens).
# reply with the number alone; pIC50 is -log10 of concentration in mol/L

# smiles_representation, pIC50
rows = [
    ("Cn1cnnc1SCC(=O)c1ccc2c(c1)OCCO2", 4.93),
    ("N#Cc1ccc(-n2cnnc2SCC(=O)c2ccc3c(c2)OCCO3)cc1", 4.91),
    ("CC(C)n1cnnc1SCC(=O)c1ccc2c(c1)OCCO2", 4.94),
    ("N#CCn1ccnc1SCC(=O)c1ccc2c(c1)OCCO2", 5.15),
]

Now turn to the next compound.
In: Under Cathepsin Z (Homo sapiens), report pIC50 for `O=C(CSc1ncc[nH]1)c1ccc2c(c1)OCCO2`
Out: 4.87
